meta.source: ChEMBL document CHEMBL4689842

Population Hoechst High Intensity Objects (%) values, listed per item
- System: U2OS
- assay.notes: Multiplex assay against U2OS
- Type: toxicity, cell-based
- setup.conditions: human, 12 h, 10 µM, compound concentration 10 uM, replicate 2
Field format: number, assumed %, no unit text.

- O=c1[nH]c2ccccc2n1C1CCN(Cc2ccc(-c3[nH]c4cc5ncnc5cc4nc3-c3ccccc3)cc2)CC1: 7

Q) Requested field: Population Hoechst High Intensity Objects (%). Item: "COc1cc(Nc2nccc(-c3cnn4nc(OC)ccc34)n2)cc(C(F)(F)F)c1"
A) 34

Q) Further, for "CC(C)NC(=O)N1CC[C@H](NC2=Nc3cc(F)ccc3N(CC(F)F)c3ccc(Cl)cc32)C1" ?
A) 13

Q) Further, for "C[C@]12CC[C@@H]3c4ccc(O)cc4CC[C@H]3[C@@H]1CC[C@@H]2O" ?
A) 8

Q) Further, for "Cc1nc(N2CC[C@H](O)C2)ncc1-c1cc(C(F)(F)F)cc2[nH]ncc12" ?
A) 12

Q) Further, for "CC(C)c1noc(N2CCC(COc3ccc(-c4ccc(S(C)(=O)=O)cc4)nc3)CC2)n1" ?
A) 5

Q) Further, for "Cc1c[nH]c2nccc(Oc3c(F)cc(Nc4cc(Cl)nc(N)n4)cc3F)c12" ?
A) 6

Q) Further, for "C=CC(=O)Nc1ccc2[nH]c(=O)n(C3CCN(Cc4ccc(-c5nc6cc[nH]c(=O)c6cc5-c5ccccc5)cc4)CC3)c2c1" ?
A) 8

Q) Further, for CC1=C(C(=O)Nc2cc3cn[nH]c3cc2F)C(c2ccc(C(F)(F)F)cc2)CC(=O)N1 (configuration not stated) ?
A) 9

Q) Further, for COc1cc2ncn(-c3cc(OCc4ccccc4C(F)(F)F)c(C(N)=O)s3)c2cc1OC [GW843682X] ?
A) 6

Q) Further, for "COC(=O)C1=C(C)NC(C)=C(C(=O)OCCCN2CCC(c3ccccc3)(c3ccccc3)CC2)[C@H]1c1cccc([N+](=O)[O-])c1" ?
A) 12

Q) Further, for O=C(c1cc2c(cc1F)OC(c1ccc(F)cc1)(c1ccc(Cl)cc1Cl)O2)N1CCOCC1 (configuration not stated) ?
A) 4

Q) Further, for "C=CC(=O)Nc1cccc(Oc2nc(Nc3ccc(N4CCN(C)CC4)cc3OC)ncc2Cl)c1" ?
A) 13

Q) Further, for "CNC(=O)Nc1ccc(-c2nc(N3CC4CCC(C3)O4)c3cnn(C4CCC5(CC4)OCCO5)c3n2)cc1" ?
A) 6

Q) Further, for "CC(C)(C)NC[C@H](O)COc1nsnc1N1CCOCC1" ?
A) 3

Q) Further, for "C=CC(=O)Nc1cccc(Sc2nc(Nc3ccc(N4CCN(C)CC4)cc3)ncc2Cl)c1" ?
A) 14

Q) Further, for Cc1cccc(CN2CCN(C(c3ccccc3)c3ccc(Cl)cc3)CC2)c1.Cl.Cl (configuration not stated) ?
A) 6
